Where do the numbers come from? From PubChem BioAssay (NCI).

test system: MCF7 breast; test: NCI-60 one-dose screen, 48 h (100 = growth as untreated, 0 = no growth, -100 = all killed); conditions: 10 µM unless noted
About 83,000 compounds went through this panel and 20% of them were active in at least one assay; those are over-represented in the sample as a whole.
parameter: growth (%)
Form entry: value (%) — number only.

Lookup result for CC[C@H](C)[C@H]1NC(=O)[C@@H]([C@H](O)C(C)C)NC(=O)[C@@H](C)N(C)C(=O)[C@H](C)N(C)C(=O)[C@H](CC(C)C)NC(=O)[C@H](CC(C)C)N(C)C(=O)[C@H](C)N(C)C1=O ; measured growth: 1.66

Entry COc1ccc(OC)c([C@H]2c3[nH]c4ccccc4c3C[C@H]3C(=O)N(CCCCCCC(=O)NO)CC(=O)N23)c1 , growth reported as 72.2

growth in this record for COc1ccc(/C=N/Nc2nc(N/N=C/c3ccc(OC)cc3O)nc(N3CCOCC3)n2)c(O)c1 : 51.7

What the record says about O=c1[nH]c2cc(Cl)ccc2n1C1CCN(c2ccc3nnc(Cl)n3n2)CC1 : growth is 81.1

The reported growth of the compound Clc1ccc(-c2nc3ccc(/C(=N\N=C\c4ccccc4)c4ccccc4)cc3[nH]2)cc1 was 78.3

Lab book: growth of COC1=C(c2ccccc2)C(=O)C(OC)=C(c2ccccc2)C1=O noted as 85.2

According to the records, this compound O=c1[nH]c(CCl)nc2c1cnn2-c1ccccc1 displays growth of 79.5

Consider CCCCCCNC(=O)Oc1ccc(/C(=C(/C)c2ccc(OC)cc2)c2ccc(OCCN3CCCC3)cc2)cc1 . Its measured growth is 18.2

So, ClC(Cl)c1nc(-c2cccs2)n2nc(-c3ccccc3)cc2n1 ? Its growth was -4.41

Note to self: growth recorded for COc1cc(/C=N/n2cnc3oc(-c4ccccc4)cc3c2=N)cc(CN2CCOCC2)c1O was 73.8

Reported growth for CN1CCN(Cc2ccc(NC(=O)c3cncc(C#Cc4cnc5ccc(O[C@H]6CCOC6)nn45)c3)cc2C(F)(F)F)CC1 was -62.6

response.value for COc1ccc([C@H]2[C@H](O)C(=O)N2c2cc(OC)c(OC)c(OC)c2)cc1Cl (field: growth) = 9.61

Record summary for CCOP(=O)(OCC)OC[C@]12CCC(C)(C)C[C@H]1C1=CC[C@@H]3[C@@]4(C)C/C(=C\c5cccnc5)[C@H](OP(=O)(OCC)OCC)C(C)(C)[C@@H]4CC[C@@]3(C)[C@]1(C)CC2 : reported growth = 6.1

The compound listed as CN1CCN(Cc2ccc(NC(=O)c3cncc(C#Cc4cnc5ccc(NC6CCOCC6)nn45)c3)cc2C(F)(F)F)CC1 shows growth equal to -60.3

Reported growth of Cc1ccc(-c2csc(N/N=C/c3nc4ccccc4n3C3CC3)n2)cc1 : 50.2

Note to self: growth recorded for CS(=O)(=O)c1ccc(-c2nn(-c3ccccc3)cc2/C=N/NC(=O)c2ccncc2)cc1 was 93.8

growth reported for this compound Cn1cc(-c2nn3c(=O)cc(-c4ccccc4)nc3s2)c2cc(F)ccc21 : 34.5

Lab note: measured growth of CC(=O)Nc1ccc(C)c(Nc2cc(-c3ccc(-n4cccn4)cc3)[nH]n2)c1 was 23.4
